Biological target: Peroxisome proliferator-activated receptor gamma (Homo sapiens) (UniProt P37231)
Sequence (P37231 whole entry, looked up): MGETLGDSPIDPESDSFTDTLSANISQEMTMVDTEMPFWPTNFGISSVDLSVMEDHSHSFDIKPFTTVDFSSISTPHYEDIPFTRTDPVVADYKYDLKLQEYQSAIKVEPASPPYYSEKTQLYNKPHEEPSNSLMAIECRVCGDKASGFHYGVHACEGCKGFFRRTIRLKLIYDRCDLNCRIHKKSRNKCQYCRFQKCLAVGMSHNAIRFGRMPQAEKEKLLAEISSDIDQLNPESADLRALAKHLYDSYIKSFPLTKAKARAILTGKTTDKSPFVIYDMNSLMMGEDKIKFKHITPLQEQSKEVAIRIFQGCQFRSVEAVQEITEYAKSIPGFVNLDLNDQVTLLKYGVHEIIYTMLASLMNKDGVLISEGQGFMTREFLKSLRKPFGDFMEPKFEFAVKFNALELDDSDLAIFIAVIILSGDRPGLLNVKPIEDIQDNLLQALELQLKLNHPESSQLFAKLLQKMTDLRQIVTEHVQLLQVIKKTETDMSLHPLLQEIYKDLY
Assay: qHTS assay for small molecule antagonists of peroxisome proliferator-activated receptor gamma signaling (AID 588537)
Conditions: HEK293 PPARg-UAS-bla, beta-lactamase ratio, antagonist mode; series mostly up to 76.8 µM
Records with an inconclusive call do not appear. The source made the active and inactive calls. Calls come from the whole dose curve; as a rule, active = well fitted inhibition curve with a large enough effect in the signal ratio, with a control signal flat (not every such curve was filed as active); inconclusive = small, poorly fitted or top-dose-only effect, or effect the other way, or a change in a side signal; inactive = flat fitted curve, though single readings scatter; the % refers to the signal ratio.
Write down one outcome, taken from active, inactive

smiles.structure: C=CCCl
cat: inactive
//
smiles.structure: Cc1ccc2c(c1N)C(=O)c1ccccc1C2=O
cat: inactive
//
smiles.structure: Nc1ccc(-c2ccc(N)c(Cl)c2)cc1Cl
cat: inactive
//
smiles.structure: Cc1ccc(N=C=O)cc1N=C=O
cat: inactive
//
smiles.structure: Nc1ccc(Cc2ccc(N)c(Cl)c2)cc1Cl
cat: active
//
smiles.structure: CC(C)C#N
cat: inactive
//
smiles.structure: Oc1cc(Cl)ccc1Cl
cat: inactive

We next turn to a different molecule, shown below.
input: Returns: the outcome recorded for Cc1ccc(OP(=O)(Oc2ccc(C)cc2)Oc2ccc(C)cc2)cc1 in this assay.
output: inactive

====

Test system: SC27B
Assay: qHTS profiling for inhibitors of Plasmodium falciparum proliferation (AID 504749); note: nearly all actives have a fitted effect of over 60% in size
Settings: P. falciparum in erythrocytes, SYBR Green DNA, 72 h; series mostly up to 28.7 µM
Inconclusive results are not listed. Active and inactive are the calls of the source. Calls follow the shape of the dose curve; as a rule, active = well fitted inhibition curve with a large enough effect; inconclusive = small, poorly fitted or top-dose-only effect; inactive = flat fitted curve, though single readings scatter.
In this exercise, the only acceptable responses are active, inactive

Before answering, review these 3 worked examples.
molecule: C[N+]1(C)C2CC[C@H]1CC(OC(=O)[C@@H](CO)c1ccccc1)C2 (some centres undefined)
tgt: SC27B
cat: inactive
//
molecule: C[N+]1([O-])[C@H]2CC[C@H]1CC(OC(=O)[C@@H](CO)c1ccccc1)C2 (some centres undefined)
tgt: SC27B
cat: inactive
//
molecule: C[C@@H]1O[C@@H](O[C@H]2C[C@@H](O)[C@@]3(CO)[C@H]4[C@H](O)C[C@]5(C)[C@@H](C6=CC(=O)OC6)CC[C@]5(O)[C@H]4CC[C@@]3(O)C2)[C@@H](O)[C@H](O)[C@H]1O
tgt: SC27B
cat: inactive

Kindly review the next molecule as well.
input: How did this test come out for C=C[C@@H]1CN2CC[C@H]1C[C@H]2[C@H](O)c1ccnc2ccccc12 ?
output: active

====

Biological target: Mitogen-activated protein kinase 10 (Mus musculus)
Experiment: JNK3 AlphaScreen Assay (AID 530);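 note: kinase came from lysate of stimulated human HepG2 cells; signal reports phosphorylation of biotinylated GST-cJun 1-79 at Ser73 with 10 µM ATP; % is set by controls: 0 for no effect and ±100 for the full control effect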
Details: JNK3 lysate, c-Jun phosphorylation; series mostly up to 57.1 µM
Results filed as inconclusive are left out. Activity calls are given as the source filed them. Calls come from the whole dose curve; as a rule, active = well fitted curve in either direction with a large enough effect (not every such curve was filed as active); inconclusive = small, poorly fitted or top-dose-only effect, or another doubt; inactive = flat fitted curve, though single readings scatter.
observation.type: activity change, negative = inhibition

Here's what some known entries look like.
molecule: O.O.[NH-]C1(C(=O)O)CCCC1.[NH-]C1(C(=O)O)CCCC1.[Ni+2]
tgt: Mitogen-activated protein kinase 10 (Mus musculus)
activity change, negative = inhibition: -2.59% [at 11.4 µM] (inactive)
//
molecule: CC[C@@H]1[C@@H]2Cc3ccc(O)cc3[C@@]1(CC)CCN2C
tgt: Mitogen-activated protein kinase 10 (Mus musculus)
activity change, negative = inhibition: 2.22% [at 11.4 µM] (inactive)
//
molecule: CN(C)C(=O)Nc1ccc(Cl)cc1
tgt: Mitogen-activated protein kinase 10 (Mus musculus)
activity change, negative = inhibition: inactive
//
molecule: O=C(O)C[C@H]1OCC=C2CN3CC[C@@]45C6=CC(=O)C(=O)C([N+](=O)[O-])=C6N[C@H]4[C@H]1[C@H]2C[C@@H]35
tgt: Mitogen-activated protein kinase 10 (Mus musculus)
activity change, negative = inhibition: -0.499% [at 11.4 µM] (inactive)
//
molecule: Oc1ccc(CCNCc2cc3c(cc2Br)OCO3)cc1
tgt: Mitogen-activated protein kinase 10 (Mus musculus)
activity change, negative = inhibition: 0.159% [at 11.4 µM] (inactive)

Dear colleague, could you send me activity change, negative = inhibition for each of the items below? Thanks.
1. C[C@@]12CC[C@H]3[C@@H](CC[C@H]4C[C@@H](O)CC[C@]43C)[C@H]1CC[C@@H]2C(=O)C[C@H](O)C(F)(F)F
2. C[C@@]12CC[C@H]3[C@@H](CC=C4C[C@H](OS(=O)(=O)O)CC[C@]43C)[C@H]1CCC2=O
3. Nc1ncnc2c1ncn2[C@@H]1O[C@@H](COP(=O)(O)CP(=O)(O)OP(=O)(O)O)[C@H](O)[C@@H]1O

output:
1. -0.552% [at 11.4 µM] (inactive)
2. inactive
3. inactive

====

Biological target: Mitogen-activated protein kinase 10 (Mus musculus) (UniProt Q61831)
Assay: JNK3 AlphaScreen Assay (AID 530);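 note: kinase came from lysate of stimulated human HepG2 cells; signal reports phosphorylation of biotinylated GST-cJun 1-79 at Ser73 with 10 µM ATP; % is set by controls: 0 for no effect and ±100 for the full control effect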
Details: JNK3 lysate, c-Jun phosphorylation; series mostly up to 57.1 µM
Records with an inconclusive call do not appear. Activity calls are given as the source filed them. Calls follow the shape of the dose curve; as a rule, active = well fitted curve in either direction with a large enough effect (not every such curve was filed as active); inconclusive = small, poorly fitted or top-dose-only effect, or another doubt; inactive = flat fitted curve, though single readings scatter.
observation.type: activity change, negative = inhibition

Below are worked cases with known answers.
molecule: CC(=O)CCC(C)=O
tgt: Mitogen-activated protein kinase 10 (Mus musculus) (UniProt Q61831)
activity change, negative = inhibition: inactive
//
molecule: O=[N+]([O-])c1ccc2c3c(cccc13)CC2
tgt: Mitogen-activated protein kinase 10 (Mus musculus) (UniProt Q61831)
activity change, negative = inhibition: inactive
//
molecule: Nc1ccc(Cl)c(Cl)c1
tgt: Mitogen-activated protein kinase 10 (Mus musculus) (UniProt Q61831)
activity change, negative = inhibition: inactive
//
molecule: C[C@@]12CC[C@H]3[C@H](CCC4=CC(=O)CC[C@H]43)[C@H]1CC[C@H]2OC1(O)C(=O)c2ccccc2C1=O
tgt: Mitogen-activated protein kinase 10 (Mus musculus) (UniProt Q61831)
activity change, negative = inhibition: -3.36% [at 11.4 µM] (inactive)

Below are some molecules; for each one, tell me its activity change, negative = inhibition.
1. Oc1c(Cl)cccc1Cl
2. Nc1nnnn1CCO
3. C[C@@H](Cc1ccc(O)cc1)NC[C@@H](O)c1cc(O)cc(O)c1
4. O=C(O)Cc1ccc([N+](=O)[O-])cc1[N+](=O)[O-]
5. NS(=O)(=O)C[C-]1C=C[CH]([Sb-]([Cl])([Cl])([Cl])([Cl])[Cl])C=C1.c1ccncc1 (configuration not stated)
6. C1CC2OC2CC1C1CO1 (configuration not stated)
7. CCNC(=O)[C@@H]1O[C@@H](n2cnc3c(N)ncnc32)[C@@H](O)[C@H]1O

output:
1. inactive
2. 3.27% [at 11.4 µM] (inactive)
3. inactive
4. 4.4% [at 11.4 µM] (inactive)
5. 4.62% [at 11.4 µM] (inactive)
6. inactive
7. inactive

input: Specify reported activity change, negative = inhibition for the molecule shown: ClC(Cl)c1ccccc1
output: inactive

====

Target: 3',5'-cyclic-AMP phosphodiesterase 4B (Homo sapiens)
Assay: qHTS Assay for Inhibitors of PDE-IV (AID 607); note: % of control where 0% means no effect
Details: HEK293 ACTOne CNG channel cells, membrane potential fluorescence; series mostly up to 22.9 µM
Records with an inconclusive call do not appear. Calls of active or inactive are those of the source. Calls follow the shape of the dose curve; as a rule, active = well fitted activation curve with a large enough effect in the main read-out, with a control signal flat (not every such curve was filed as active); inconclusive = small, poorly fitted or top-dose-only effect, or effect the other way, or a change in a side signal; inactive = flat fitted curve, though single readings scatter.
observation.type: outcome

compound: COc1ccc(C[C@@H](N)c2ccc(OC)cc2)cc1
value: inactive
--
compound: O=C(O)C(O)(c1ccc(-c2ccccc2)cc1)c1ccc(-c2ccccc2)cc1
value: inactive
--
compound: COc1ccc(C[C@@H]2C(=O)N[C@H](C)C(=O)N(C)[C@@H]3C(=O)N(C)[C@@H](Cc4ccc(O)c(c4)Oc4ccc(cc4)[C@H]3O)C(=O)N[C@@H](C)C(=O)N[C@H](C)C(=O)N2C)cc1
value: inactive
--
compound: CSc1ccc2c(c1)c(CCN)c(C)n2Cc1ccccc1Cl
value: inactive

Provide reported outcome for each item, in the same order as listed.
1. CC[C@@](O)(C(=O)O)c1cc2n(c(=O)c1CO)Cc1cc3ccccc3nc1-2
2. C[C@@H]1[C@H]2C=C[C@@H]1[C@@H](c1c3ccc(=O)c(O)c-3oc3c(O)c(O)ccc13)[C@@H]2C(=O)O
3. COc1ccc(C[C@@H]2NC[C@H](O)[C@@H]2OC(C)=O)cc1
4. CC1(C)CCC(C)(C)c2c1ccc(O)c2Cc1c(O)ccc2c1C(C)(C)CCC2(C)C
5. NS(=O)(=O)C[C-]1C=C[CH]([Sb-]([Cl])([Cl])([Cl])([Cl])[Cl])C=C1.c1ccncc1 (stereo unspecified)
6. c1nc(N2CC2)c2cnn([C@@H]3CCCCO3)c2n1

output:
["inactive", "inactive", "inactive", "inactive", "inactive", "inactive"]

Hey, can you go through the list below and give me outcome for every item?
1. C[C@H](CC(C#N)(c1ccccc1)c1ccccc1)N1CCCCC1
2. O=C(O)C(C(=O)O)P(=S)(S)c1ccccc1 (stereo unspecified)
3. COc1ccccc1CN1CCCC2(CCN(C(=O)Oc3ccccc3)CC2)C1
4. CCC1(CCSC(=N)N)C(=O)NC(=O)NC1=O
5. CCN=C=NCCCN(C)C

output:
["inactive", "inactive", "inactive", "inactive", "inactive"]

Hi! Can you tell me outcome for each of these compounds?
1. CC(C)(C)c1cc(C#N)cc(Br)c1OP(=O)(Oc1c(Br)cc(C#N)cc1C(C)(C)C)c1ccccc1
2. CS(=N)(=O)CC[C@H](N)P(=O)(O)O (stereo partly specified)
3. O=C(O)[C@H]1[C@H](C(=O)O)[C@H]2CC[C@@H]1O2
4. Oc1ccc(CCNCc2cc3c(cc2Br)OCO3)cc1
5. C[C@@H](O)CN(CCN(C[C@@H](C)O)C[C@@H](C)O)C[C@@H](C)O.O=[N+]([O-])O.[Cu]
6. NC(=O)c1ccc(C(=O)Nc2ccc([As](=O)(O)O)cc2)cc1

output:
["inactive", "inactive", "inactive", "inactive", "inactive", "inactive"]
